system: A. niger; assay: Minimum inhibitory concentration for fungi, tube dilution, A. niger (Table IV); details: Aspergillus niger, 48 h, read-out: Minimum Inhibitory Concentration, A. niger
So basically, if MIC comes in under 20 µg/mL it's MET, and if it's 20 µg/mL or more it's NOT MET.

Field: example entries. Status: answers known.
CCCCCCCCN1CCN(CCCCCCN2CCN(C(C)C(=Cc3ccccc3)Cc3ccccc3)CC2)CC1 (stereo not shown) [LXII]    MET
CC(N1CCN(CCN2CCOCC2)CC1)C(O)(Cc1ccccc1)Cc1ccccc1 (stereo not shown) [V]    NOT MET
CC(N1CCN(CCN(C)Cc2ccccc2)CC1)C(O)(Cc1ccccc1)Cc1ccccc1 (stereo not shown) [XV]    NOT MET
CNCCN1CCN(C(C)C(=Cc2ccccc2)Cc2ccccc2)CC1 (stereo not shown) [XXV]    MET
CC(C(=Cc1ccccc1)Cc1ccccc1)N1CCN(CCN2CCN(C)CC2)CC1 (stereo not shown) [XXXVI]    MET

Inquiry: Please let me know if CC(N1CCN(CCN2CCCC2)CC1)C(O)(Cc1ccccc1)Cc1ccccc1 (stereo not shown) [III] shows MIC below 20 µg/mL.
Reply text: NOT MET

Inquiry: Please let me know if CC(N1CCN(C)CC1)C(O)(Cc1ccc(Cl)cc1)Cc1ccc(Cl)cc1 (stereo not shown) [XLVIII] shows MIC below 20 µg/mL.
Reply text: MET

Inquiry: Please let me know if CC(C(=Cc1ccccc1)Cc1ccccc1)N1CCN(CCN(C(C)C)C(C)C)CC1 (stereo not shown) [XXVIII] shows MIC below 20 µg/mL.
Reply text: NOT MET

Inquiry: Please let me know if CC1CCN(CCN2CCN(C(C)C(=Cc3ccccc3)Cc3ccccc3)CC2)CC1 (stereo not shown) [XXXV] shows MIC below 20 µg/mL.
Reply text: MET

Inquiry: Please let me know if Cc1cccc(CC(O)(Cc2cccc(C)c2)C(C)N2CCN(CCN3CCCCC3)CC2)c1 (stereo not shown) [XXI] shows MIC below 20 µg/mL.
Reply text: MET

Inquiry: Please let me know if C(=C(CCN1CCN(CCN2CCCCC2)CC1)Cc1ccccc1)c1ccccc1 [LXIV] shows MIC below 20 µg/mL.
Reply text: MET

Inquiry: Please let me know if CC(C(=Cc1ccccc1)Cc1ccccc1)N1CCN(CCN2CCN(CCc3ccccc3)CC2)CC1 (stereo not shown) [XXXIX] shows MIC below 20 µg/mL.
Reply text: NOT MET

Inquiry: Please let me know if CC(N1CCN(CCO)CC1)C(O)(Cc1ccc(Cl)cc1)Cc1ccc(Cl)cc1 (stereo not shown) [XLVII] shows MIC below 20 µg/mL.
Reply text: NOT MET

Inquiry: Please let me know if CC(C(=Cc1ccccc1)Cc1ccccc1)N1CCN(CCN2CCN(Cc3ccccc3)CC2)CC1 (stereo not shown) [XXXVII] shows MIC below 20 µg/mL.
Reply text: NOT MET

Inquiry: Please let me know if CC(N1CCN(CCN(C)C)CC1)C(O)(Cc1ccccc1)Cc1ccccc1 (stereo not shown) [Compound I] shows MIC below 20 µg/mL.
Reply text: NOT MET

Inquiry: Please let me know if CC(C(=Cc1ccccc1)Cc1ccccc1)N1CCN(CCN2CCCC2)CC1 (stereo not shown) [XXIX] shows MIC below 20 µg/mL.
Reply text: MET

Inquiry: Please let me know if CC(C(=Cc1ccccc1)Cc1ccccc1)N1CC[N+]2(CCCCCC2)CC1 (stereo not shown) [LXVII] shows MIC below 20 µg/mL.
Reply text: NOT MET

Inquiry: Please let me know if CC1CCCN(CCN2CCN(C(C)C(=Cc3ccccc3)Cc3ccccc3)CC2)C1 (stereo not shown) [XXXIV] shows MIC below 20 µg/mL.
Reply text: NOT MET
